System: MDA-MB-435
Test: NCI tumour cell line growth inhibition, 48 h
Mark false for TGI values under 30 µM, and true for everything at or above.

INSERT INTO measurements (compound, assaytarget, cat) VALUES
  ('Cc1ccc(-c2c(C#N)c(-c3ccc([N+](=O)[O-])cc3)c(C#N)c(=O)n2NS(=O)(=O)c2ccccc2)cc1', 'MDA-MB-435', 'true'),
  ('CC1C(c2ccc3c(c2)OCO3)c2cc3c(cc2OC1N1CCOCC1)OCO3 (stereo not drawn)', 'MDA-MB-435', 'false'),
  ('Cc1c(C#N)c(N)n(C2OCC(O)C(O)C2O)c(=S)c1C#N (stereo not drawn)', 'MDA-MB-435', 'true'),
  ('CC1(C)[C@@H](Cn2cnc3c(Cl)nc(N)nc32)CC[C@@]1(C)CO', 'MDA-MB-435', 'true');

Is TGI at least 30 µM? Consider COC(C(=O)[C@@H](O)[C@@H](C)O)[C@@H]1Cc2cc3cc(O[C@H]4C[C@@H](O[C@H]5C[C@@H](O)[C@H](O)C(C)O5)[C@H](O)C(C)O4)c(C)c(O)c3c(O)c2C(=O)[C@H]1O[C@H]1C[C@@H](O[C@H]2C[C@@H](O[C@H]3C[C@@H](O)[C@H](OC)C(C)O3)[C@@H](O)C(C)O2)[C@H](O)C(C)O1 (stereo partly drawn)
false

State whether the measured TGI reaches 30 µM, counting equality as reaching it, for Clc1ccc(Cl)c(SCCCN2CCNCC2)c1
true

Has CCN(CC)CCNc1ccc2ncn3c4cc(OC)c(OC)c(=O)c4c(O)c1c23 a recorded TGI greater than or equal to 30 µM?
false

Does TGI meet or surpass 30 µM for COc1ccc(/C=C(/c2ccccc2)[N+](=O)[O-])cc1 ?
false
